Value source: patent US10030020B2

# test target: MAGL (Mus musculus (Mouse))
# Sequence (O35678 whole entry): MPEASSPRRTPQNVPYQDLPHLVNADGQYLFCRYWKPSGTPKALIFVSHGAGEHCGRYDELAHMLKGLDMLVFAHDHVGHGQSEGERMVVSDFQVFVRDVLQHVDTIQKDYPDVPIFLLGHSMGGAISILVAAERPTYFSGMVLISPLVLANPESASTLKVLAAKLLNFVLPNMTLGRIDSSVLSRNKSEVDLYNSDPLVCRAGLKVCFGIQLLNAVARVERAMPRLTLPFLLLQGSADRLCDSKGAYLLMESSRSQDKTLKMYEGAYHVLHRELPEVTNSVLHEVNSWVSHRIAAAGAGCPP
# assay notes: In vitro competitive activity-based protein profiling (mouse brain membrane fraction or cell lysates), MAGL band
# Format: biochemical
# measurement parameters: 1 μM, mouse proteome; read-out: MAGL % Inh 1 μM (mouse)
# Procedure: In Vitro Competitive Activity-Based Protein Profiling. Proteomes (mouse brain membrane fraction or cell lysates) (50 μL, 1.0 mg/mL total protein concentration) were preincubated with varying concentrations of inhibitors at 37° C. After 30 min, FP—Rh (1.0 μL, 50 μM in DMSO) was added and the mixture was incubated for another 30 min at 37° C. Reactions were quenched with SDS loading buffer (50 μL-4×) and run on SDS-PAGE.
Items are presented alongside their recorded inhibition at 1 µM.

# example entries with known answers
>>> test_value("O=C(OC(C(F)(F)F)C(F)(F)F)N1CCC2(CCCN2Cc2ccc(C(F)(F)F)c(N3CCOCC3)c2)CC1")
"> 75%"
>>> test_value("O=C(O)c1cc(CN2CCCC23CCN(C(=O)OC(C(F)(F)F)C(F)(F)F)CC3)cc(C(F)(F)F)c1")
"> 75%"

Let us examine a further case.
Which inhibition at 1 µM is reported for this molecule? `CC(=O)N1CCCc2cccc(CN3CCCC34CCN(C(=O)OC(C(F)(F)F)C(F)(F)F)CC4)c21` > 75%
